Data origin: patent US9783527B2

TARGET_SYSTEM: human Nav1.8 (Homo sapiens (Human))
PROTOCOL_TEXT: FRET-based membrane potential assay, recombinant human sodium channel Nav1.8
TEST_PARAMETERS: HEK293 cells stably expressing recombinant human Nav1.8; depolarization with veratridine (EC80) + scorpion venom
For each record, write down the corresponding log10 of IC50.
Field: value | Transform: log10 | Quantity: IC50 | Unit: nM

Use these answered entries as a reference point.
CC(C)O[C@H]1CCCC[C@@H]1N1CCN(c2cccc3c2cnn3-c2ccccc2F)C1=O [Example 331]: 3.56
O=C1CCCC[C@@H]1N1CCN(c2cccc3c2cnn3-c2ccccc2F)C1=O [Example 281]: 4.09
O=C(CN1CCN(c2cccc3c2cnn3-c2ccccc2F)C1=O)NC1CCCC(F)(F)C1 (stereo not shown) [Example 340]: 2.80

Record log10 of IC50 per entry; entries follow.
1. O=C(CN1CCN(c2cccc3c2cnn3-c2ccccc2F)C1=O)NC1(CO)CCC1 [Example 316]
2. O=C(CCN1CCN(c2cccc3c2cnn3-c2ccccc2F)C1=O)N1CC[C@H](F)C1 [Example 292]
3. CO[C@H]1CCCC[C@@H]1N1CCN(c2cccc3c2cnn3-c2ccccc2F)C1=O [Example 279]
4. O=C1N(Cc2nnc(C3CCC3)o2)CCN1c1cccc2c1cnn2-c1ccccc1F [Example 50]
5. CC(C)[C@H](NC(=O)CN1CCN(c2cccc3c2cnn3-c2ccccc2F)C1=O)C(=O)NC(C)(C)C [Example 346]
6. O=C(CN1CCN(c2cccc3c2cnn3-c2ccccc2F)C1=O)N1CC[C@H](C(F)(F)F)C1 [Example 308]
7. CC1(NC(=O)CN2CCN(c3cccc4c3cnn4-c3ccccc3F)C2=O)CC1 [Example 333]

1: 3.22; 2: 3.65; 3: 3.75; 4: 3.49; 5: 2.98; 6: 2.54; 7: 3.68

Provide each entry's log10 of IC50 from the list below.
1. O=C(CN1CCN(c2cccc3c2cnn3-c2ccccc2F)C1=O)N1CCC(F)CC1 [Example 69]
2. O=C1N(c2cccc3c2cnn3-c2ccccc2F)CCN1C1CN(S(=O)(=O)CC2CC2(Cl)Cl)C1 (stereo not shown) [Example 282]
3. O=C(CN1CCN(c2cccc3c2cnn3-c2ccccc2F)C1=O)NC1(C(F)(F)F)CCC1 [Example 353]
4. O=C1N(c2cccc3c2cnn3-c2ccccc2F)CCN1[C@H]1CCCC[C@@H]1OCc1ccccc1 [Example 275]
5. O=C(Cn1ccn(-c2cccc3c2cnn3-c2ccccc2F)c1=O)N1CC[C@H](F)C1 [Example 11]

1. 3.68
2. 3.15
3. 3.23
4. 3.57
5. 3.17

Find the recorded log10 of IC50 belonging to Cc1noc(C)c1CN1CCN(c2cccc3c2cnn3-c2ccccc2F)C1=O [Example 27] and report it.
3.02

====

Could you please report measured pIC50 for the items listed next?
TARGET_SYSTEM: human Nav1.8 (Homo sapiens (Human))
PROTOCOL_TEXT: FRET-based membrane potential assay, recombinant human sodium channel Nav1.8
TEST_PARAMETERS: HEK293 cells stably expressing recombinant human Nav1.8; depolarization with veratridine (EC80) + scorpion venom
Numbers only, as −log10 of the molar value.

Solved entries (count: 2):
CC(=O)C1CN(C(=O)CN2CCN(c3cccc4c3cnn4-c3ccccc3F)C2=O)C1: 5.41
O=C(CN1CCN(c2cccc3c2cnn3-c2ccccc2F)C1=O)N[C@H]1CCC[C@@H]1OCc1ccccc1: 6.18

Provide reported pIC50 for each item, in the same order as listed.
1. O=C1CC(NC(=O)CN2CCN(c3cccc4c3cnn4-c3ccccc3F)C2=O)C1
2. CON=C1CC(NC(=O)CN2CCN(c3cccc4c3cnn4-c3ccccc3F)C2=O)C1 (centres unmarked)
3. C[C@H]1CCCN1C(=O)CN1CCN(c2cccc3c2cnn3-c2ccccc2F)C1=O
4. CCCS(=O)(=O)N1CC(N2CCN(c3cccc4c3cnn4-c3ccccc3F)C2=O)C1

1: 5.12; 2: 5.39; 3: 5.74; 4: 5.85

Would you mind listing pIC50 for each of the following compounds?
1. O=C(CN1CCN(c2cccc3c2cnn3-c2ccccc2F)C1=O)N1CCCC(F)(F)C1
2. O=C(CN1CCN(c2cccc3c2cnn3-c2ccccc2F)C1=O)NC1CC(=NO)C1 (centres unmarked)

1: 5.88; 2: 4.78

====

Kindly state pIC50 for each of the entries shown.
TARGET_SYSTEM: human Nav1.7 (Homo sapiens (Human))
Sequence (Q15858 whole entry): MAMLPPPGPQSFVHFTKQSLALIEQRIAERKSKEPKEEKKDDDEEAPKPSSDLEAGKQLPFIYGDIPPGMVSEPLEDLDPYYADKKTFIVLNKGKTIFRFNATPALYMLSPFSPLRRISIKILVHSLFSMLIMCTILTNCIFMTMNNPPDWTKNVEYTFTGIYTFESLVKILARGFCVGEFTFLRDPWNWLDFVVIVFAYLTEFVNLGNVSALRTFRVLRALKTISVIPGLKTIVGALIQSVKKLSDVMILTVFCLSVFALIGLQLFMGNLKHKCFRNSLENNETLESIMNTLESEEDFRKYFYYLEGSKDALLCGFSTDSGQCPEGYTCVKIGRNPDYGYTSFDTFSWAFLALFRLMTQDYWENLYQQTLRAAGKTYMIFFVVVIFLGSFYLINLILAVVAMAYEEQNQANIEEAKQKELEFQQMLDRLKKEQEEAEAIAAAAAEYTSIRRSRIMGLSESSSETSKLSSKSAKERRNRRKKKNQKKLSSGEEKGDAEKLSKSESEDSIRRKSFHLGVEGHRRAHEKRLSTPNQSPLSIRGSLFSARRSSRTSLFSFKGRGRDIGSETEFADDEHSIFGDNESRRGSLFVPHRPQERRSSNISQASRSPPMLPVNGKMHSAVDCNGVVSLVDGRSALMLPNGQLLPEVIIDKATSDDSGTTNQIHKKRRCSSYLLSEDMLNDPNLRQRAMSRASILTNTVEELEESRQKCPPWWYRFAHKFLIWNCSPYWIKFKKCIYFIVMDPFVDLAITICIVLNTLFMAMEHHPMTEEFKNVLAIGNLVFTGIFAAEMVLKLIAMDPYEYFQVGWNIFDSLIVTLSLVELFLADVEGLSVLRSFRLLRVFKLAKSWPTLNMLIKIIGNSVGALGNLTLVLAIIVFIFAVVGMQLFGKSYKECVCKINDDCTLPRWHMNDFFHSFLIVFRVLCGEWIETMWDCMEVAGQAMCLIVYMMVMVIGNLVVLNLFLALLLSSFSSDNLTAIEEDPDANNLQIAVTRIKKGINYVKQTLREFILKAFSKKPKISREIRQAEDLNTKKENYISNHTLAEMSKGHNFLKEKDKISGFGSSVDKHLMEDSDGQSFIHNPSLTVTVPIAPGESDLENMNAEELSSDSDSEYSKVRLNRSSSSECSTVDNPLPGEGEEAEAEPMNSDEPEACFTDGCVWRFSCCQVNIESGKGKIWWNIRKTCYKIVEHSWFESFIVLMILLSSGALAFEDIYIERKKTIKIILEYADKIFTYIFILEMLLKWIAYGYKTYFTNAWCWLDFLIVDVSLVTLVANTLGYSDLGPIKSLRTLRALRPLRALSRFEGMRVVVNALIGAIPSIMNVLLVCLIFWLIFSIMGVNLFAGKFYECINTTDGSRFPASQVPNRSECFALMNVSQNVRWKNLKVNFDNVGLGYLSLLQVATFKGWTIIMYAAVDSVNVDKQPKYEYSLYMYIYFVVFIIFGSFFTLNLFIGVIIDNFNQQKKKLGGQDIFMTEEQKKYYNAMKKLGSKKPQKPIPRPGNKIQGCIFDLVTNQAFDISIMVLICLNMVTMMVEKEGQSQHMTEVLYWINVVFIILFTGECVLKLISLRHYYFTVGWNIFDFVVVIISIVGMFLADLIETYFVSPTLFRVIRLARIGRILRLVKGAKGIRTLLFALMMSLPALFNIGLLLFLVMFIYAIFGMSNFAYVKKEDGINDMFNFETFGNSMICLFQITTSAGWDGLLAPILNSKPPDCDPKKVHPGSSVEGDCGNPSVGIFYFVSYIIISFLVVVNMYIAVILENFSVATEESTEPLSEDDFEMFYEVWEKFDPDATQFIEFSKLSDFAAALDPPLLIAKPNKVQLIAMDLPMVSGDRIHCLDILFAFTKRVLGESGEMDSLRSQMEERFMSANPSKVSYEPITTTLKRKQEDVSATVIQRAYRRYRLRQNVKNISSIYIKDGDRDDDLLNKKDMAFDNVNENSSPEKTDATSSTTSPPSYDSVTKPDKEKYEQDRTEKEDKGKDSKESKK
PROTOCOL_TEXT: FRET-based membrane potential assay, recombinant human sodium channel Nav1.7
TEST_PARAMETERS: HEK293 cells stably expressing recombinant human Nav1.7; depolarization with veratridine (EC80) + scorpion venom
Give bare numbers, as −log10 of the molar value.

Here is how some compounds turned out for pIC50.
O=C(CCN1CCN(c2cccc3c2cnn3-c2ccccc2F)C1=O)N1CC[C@H](F)C1: 5.53
C[C@@H]1COCCN1C(=O)CN1CCN(c2cccc3c2cnn3-c2ccccc2F)C1=O: 5.64
Cc1noc(C)c1CN1CCN(c2cccc3c2cnn3-c2ccccc2F)C1=O: 6.26
CC(C)CCCC(=O)CN1CCN(c2cccc3c2cnn3-c2ccccc2F)C1=O: 6.15
O=C1N(c2cncnc2)CCN1c1cccc2c1cnn2-c1ccccc1F: 5.48

For the 6 compounds below, give their pIC50 values.
1. O=C1CCCN(C(=O)CN2CCN(c3cccc4c3cnn4-c3ccccc3F)C2=O)CC1
2. O=C(CN1CCN(c2cccc3c2cnn3-c2ccccc2F)C1=O)N1CCC(F)CC1
3. O=C(CC1CC2CCC1C2)CN1CCN(c2cccc3c2cnn3-c2ccccc2F)C1=O (stereo not drawn)
4. CC[C@@H](O)CN1CCN(c2cccc3c2cnn3-c2ccccc2F)C1=O
5. O=C1N(CC2(OCc3ccccc3)CC2)CCN1c1cccc2c1cnn2-c1ccccc1F
6. Cc1cc(CN2CCN(c3cccc4c3cnn4-c3ccccc3F)C2=O)no1

1: 5.57; 2: 5.53; 3: 5.70; 4: 5.45; 5: 5.04; 6: 5.53

Batch: pIC50 for all items listed.
1. O=C1CC(C(=O)N2CCN(c3cccc4c3cnn4-c3ccccc3F)C2=O)C1
2. NC(=O)Cn1ccn(-c2cccc3c2cnn3-c2ccccc2F)c1=O
3. CC(=O)N1CC(CN2CCN(c3cccc4c3cnn4-c3ccccc3F)C2=O)C1
4. O=C(CN1CCN(c2cccc3c2cnn3-c2ccccc2F)C1=O)NC1CC(F)(F)C1
5. O=C1N(Cc2ccccn2)CCN1c1cccc2c1cnn2-c1ccccc1F
6. CC(C)C[C@@H](O)CN1CCN(c2cccc3c2cnn3-c2ccccc2F)C1=O

[5.65, 6.02, 4.70, 5.55, 5.99, 5.73]

Please report the recorded pIC50 for `O=C1N(c2cccnn2)CCN1c1cccc2c1cnn2-c1ccccc1F` .
5.49

====

TARGET_SYSTEM: human Nav1.8 (Homo sapiens (Human), UniProt Q9Y5Y9)
Sequence (Q9Y5Y9 whole entry): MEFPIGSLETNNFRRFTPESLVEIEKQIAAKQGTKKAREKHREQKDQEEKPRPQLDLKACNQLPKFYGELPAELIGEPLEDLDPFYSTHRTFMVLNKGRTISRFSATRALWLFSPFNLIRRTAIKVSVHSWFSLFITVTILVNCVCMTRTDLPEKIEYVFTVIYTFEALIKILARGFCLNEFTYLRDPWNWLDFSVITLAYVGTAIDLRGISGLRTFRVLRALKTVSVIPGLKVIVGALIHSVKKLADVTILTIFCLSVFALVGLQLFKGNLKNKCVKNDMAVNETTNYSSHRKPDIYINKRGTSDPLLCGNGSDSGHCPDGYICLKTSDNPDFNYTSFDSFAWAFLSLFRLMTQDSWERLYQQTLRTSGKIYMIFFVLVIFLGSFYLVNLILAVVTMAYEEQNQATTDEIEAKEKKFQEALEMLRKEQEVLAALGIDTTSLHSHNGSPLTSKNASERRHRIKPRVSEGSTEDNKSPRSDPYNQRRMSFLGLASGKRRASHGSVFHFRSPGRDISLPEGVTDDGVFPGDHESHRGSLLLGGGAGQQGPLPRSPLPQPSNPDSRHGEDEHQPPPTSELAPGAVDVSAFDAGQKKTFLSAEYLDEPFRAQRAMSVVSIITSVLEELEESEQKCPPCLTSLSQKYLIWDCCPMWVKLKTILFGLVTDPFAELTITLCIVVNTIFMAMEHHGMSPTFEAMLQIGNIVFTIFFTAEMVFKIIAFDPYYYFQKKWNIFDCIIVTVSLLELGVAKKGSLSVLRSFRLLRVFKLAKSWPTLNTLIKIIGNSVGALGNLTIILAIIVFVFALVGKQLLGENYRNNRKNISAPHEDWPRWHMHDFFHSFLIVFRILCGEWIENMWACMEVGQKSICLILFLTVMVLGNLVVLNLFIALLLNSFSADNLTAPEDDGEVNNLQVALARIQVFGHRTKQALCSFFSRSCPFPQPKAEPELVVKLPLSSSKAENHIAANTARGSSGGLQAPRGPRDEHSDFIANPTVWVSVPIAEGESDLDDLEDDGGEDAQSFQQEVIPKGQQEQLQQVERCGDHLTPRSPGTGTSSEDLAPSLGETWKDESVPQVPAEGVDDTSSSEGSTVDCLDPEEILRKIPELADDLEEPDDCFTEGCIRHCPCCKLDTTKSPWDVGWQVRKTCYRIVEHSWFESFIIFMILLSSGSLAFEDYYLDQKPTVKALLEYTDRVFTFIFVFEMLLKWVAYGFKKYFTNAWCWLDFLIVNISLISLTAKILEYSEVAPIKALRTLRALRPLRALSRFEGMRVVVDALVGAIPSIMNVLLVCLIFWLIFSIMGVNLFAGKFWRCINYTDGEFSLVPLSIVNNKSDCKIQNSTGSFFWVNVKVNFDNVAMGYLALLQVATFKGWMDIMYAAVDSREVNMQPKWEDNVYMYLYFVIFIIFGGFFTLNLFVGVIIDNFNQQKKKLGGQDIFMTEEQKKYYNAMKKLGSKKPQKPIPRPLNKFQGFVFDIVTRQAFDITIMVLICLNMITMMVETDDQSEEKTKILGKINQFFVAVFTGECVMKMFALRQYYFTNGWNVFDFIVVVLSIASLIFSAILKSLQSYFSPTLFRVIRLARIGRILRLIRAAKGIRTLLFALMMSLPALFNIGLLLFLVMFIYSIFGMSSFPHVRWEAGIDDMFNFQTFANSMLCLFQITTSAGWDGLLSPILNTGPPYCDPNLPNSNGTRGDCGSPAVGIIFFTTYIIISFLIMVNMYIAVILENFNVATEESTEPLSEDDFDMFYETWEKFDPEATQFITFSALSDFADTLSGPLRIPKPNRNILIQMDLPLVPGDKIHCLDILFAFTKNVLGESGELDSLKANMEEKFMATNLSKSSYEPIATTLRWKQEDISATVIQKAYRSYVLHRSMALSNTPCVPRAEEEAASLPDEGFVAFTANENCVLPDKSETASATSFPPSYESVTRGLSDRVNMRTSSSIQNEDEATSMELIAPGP
PROTOCOL_TEXT: FRET-based membrane potential assay, recombinant human sodium channel Nav1.8
TEST_PARAMETERS: HEK293 cells stably expressing recombinant human Nav1.8; depolarization with veratridine (EC80) + scorpion venom
MEASURED_ENDPOINT: IC50 (µM)
Numbers only, in µM.

Observe how each entry below is paired with its result.
O=C(CN1CCN(c2cccc3c2cnn3-c2ccccc2F)C1=O)N1C[C@H]2CCC[C@H]2C1: 0.746
O=C(CN1CCN(c2cccc3c2cnn3-c2ccccc2F)C1=O)N1CCC(C(F)(F)F)CC1: 0.398
O=C1N(Cc2cocn2)CCN1c1cccc2c1cnn2-c1ccccc1F: 0.517
O=C1N(Cc2nnc(C3CC3)o2)CCN1c1cccc2c1cnn2-c1ccccc1F: 0.538
O=C(CN1CCN(c2cccc3c2cnn3-c2ccccc2F)C1=O)N1CC(O)C1: 13.1
CCC1(O)CN(C(=O)CN2CCN(c3cccc4c3cnn4-c3ccccc3F)C2=O)C1: 1.5
O=C(CN1CCN(c2cccc3c2cnn3-c2ccccc2F)C1=O)N1CC(C(F)(F)F)C1: 3.13
O=C1C[C@H]2CC[C@@H](C1)N2C(=O)CN1CCN(c2cccc3c2cnn3-c2ccccc2F)C1=O: 4.35

Hey, quick one: what's IC50 for each of these?
1. O=C(CN1CCN(c2cccc3c2cnn3-c2ccccc2F)C1=O)N1CC(F)(F)C(F)(F)C1
2. O=C1N(Cc2ccccn2)CCN1c1cccc2c1cnn2-c1ccccc1F
3. CC(C)CO[C@H]1CCCC[C@@H]1N1CCN(c2cccc3c2cnn3-c2ccccc2F)C1=O
4. O=C1CCCN(C(=O)CN2CCN(c3cccc4c3cnn4-c3ccccc3F)C2=O)CC1

1: 1.68; 2: 0.321; 3: 10.8; 4: 3.25

Would you mind listing IC50 for each of the following molecules?
1. CC(C)COC(=O)N1CCN(c2cccc3c2cnn3-c2ccccc2F)C1=O
2. O=C(CN1CCN(c2cccc3c2cnn3-c2ccccc2F)C1=O)NC1CCC(F)(F)C1 (centres unmarked)
3. CC(C)(C)OC(=O)CN1CCN(c2cccc3c2cnn3-c2ccccc2F)C1=O
4. O=C(CN1CCN(c2cccc3c2cnn3-c2ccccc2F)C1=O)N[C@@H]1CCC[C@@H]1O
5. O=C1N(c2cccc3c2cnn3-c2ccccc2F)CCN1[C@@H]1CCOC1

1: 0.0572; 2: 0.991; 3: 3; 4: 2.64; 5: 2.54
